# TEST_SUMMARY: qHTS of pediatric cancer cell lines to identify multiple opportunities for drug repurposing: Primary screen for control Hh wild type fibroblast cells (AID 1347106); further: nearly all actives have a fitted effect of over 55% in size
# MEASUREMENT_CONDITIONS: Hh wild-type fibroblast viability, CellTiter-Glo luminescence, 48 h; series mostly up to 46 µM
Results filed as inconclusive are left out. Calls of active or inactive are those of the source. The call rests on the fitted dose curve; in most records, active means well fitted cell-killing curve with a large enough effect; inconclusive means small, poorly fitted or top-dose-only effect; inactive means flat fitted curve, though single readings scatter.
Pick one: Yes (active), No (inactive)

Input line: Called result for `C[C@@H]1CC[C@@]2(OC1)O[C@H]1C[C@H]3[C@@H]4CC=C5C[C@@H](O[C@@H]6O[C@H](CO)[C@@H](O[C@@H]7O[C@@H](C)[C@H](O)[C@@H](O)[C@@H]7O)[C@H](O)[C@@H]6O[C@@H]6O[C@@H](C)[C@H](O)[C@@H](O)[C@@H]6O)CC[C@]5(C)[C@@H]4CC[C@]3(C)[C@@H]1[C@H]2C`
Output line: No

Input line: Called result for `O=[N+]([O-])/N=C1\NCCN1Cc1ccc(Cl)nc1`
Output line: No

Input line: Called result for NC1=NC(=O)N2CC12 (stereo not drawn)
Output line: No

Input line: Called result for CCC(=O)O[C@@H]1C=C2CCC3C(CCC4(C)C3CC[C@@H]4OC(=O)CC)C2CC1 (stereo partly drawn)
Output line: No

Input line: Called result for `CC(=O)Nc1ccc(OC[C@](C)(O)C(=O)Nc2ccc([N+](=O)[O-])c(C(F)(F)F)c2)cc1`
Output line: No

Input line: Called result for `C[C@]12CC[C@H](O)CC1=CC[C@H]1[C@H]3CCC(=O)[C@@]3(C)CC[C@@H]12`
Output line: No

Input line: Called result for `c1ccc2c(CN3CCNCC3)cccc2c1`
Output line: No

Input line: Called result for `C[C@]12CC[C@H]3[C@@H](CCC4=CC(=O)CC[C@@]43C)[C@H]1CC[C@H]2O`
Output line: No

Input line: Called result for `O=S(=O)(O)C(F)(F)C(F)(F)C(F)(F)C(F)(F)F`
Output line: No

Input line: Called result for `CN[C@@H]1Cc2cccc3[nH]c(=O)n(c23)C1`
Output line: No

Input line: Called result for `CC(C)N(CCNC(=O)CN1CCCC1=O)C(C)C`
Output line: No

Input line: Called result for `Fc1cc(Br)ccc1CBr`
Output line: No

Input line: Called result for CCO/N=C(\CC)C1=C(O)CC(c2c(C)cc(C)cc2C)CC1=O (stereo not drawn)
Output line: No

Input line: Called result for `O=C(O)c1cc(Oc2ccc(C(F)(F)F)cc2Cl)ccc1[N+](=O)[O-]`
Output line: No

Input line: Called result for `Cc1nc(-c2ccc(-c3ccc(C(=O)N4CCc5cc6c(cc54)C4(CCN(C)CC4)CO6)cc3)c(C)c2)no1`
Output line: No

Input line: Called result for COCC1(CO)C(=O)C2CCN1CC2 (stereo not drawn)
Output line: No

Input line: Called result for `Clc1ccccc1C(c1ccccc1)(c1ccccc1)n1cccn1`
Output line: No

Input line: Called result for `O=C(N[C@@H](COc1ccc2[nH]c(=O)[nH]c2c1)c1ccccc1)c1cccn(Cc2ccc(F)c(F)c2)c1=O`
Output line: No

Input line: Called result for `Cc1c(C(=O)Nc2cccc(C(F)(F)F)c2)cc(-c2ccccc2)n1CCCN1CCOCC1`
Output line: No

Input line: Called result for CC1(C)CC/C(=C/c2ccc(Cl)cc2)C1(O)Cn1cncn1 (stereo not drawn)
Output line: No

Input line: Called result for `Oc1ccc2c3c1O[C@H]1c4[nH]c5c(c4C[C@@]4(O)[C@@H](C2)N(CC2CC2)CC[C@]314)C[C@@]1(O)[C@H]2Cc3ccc(O)c4c3[C@@]1(CCN2CC1CC1)[C@H]5O4`
Output line: No

Input line: Called result for CC(C)(C)[C@]1(O)C[C@@H]2OC(=O)C[C@@]23C(=O)O[C@@H]2OC(=O)[C@H](O)C213 (stereo partly drawn)
Output line: No

Input line: Called result for `O=C(Oc1ccc([N+](=O)[O-])cc1)N1CCN(Cc2cccc(Oc3ccccc3)c2)CC1`
Output line: Yes

Input line: Called result for CC(C)(C)C(O)C(Oc1ccc(Cl)cc1)n1cncn1 (stereo not drawn)
Output line: No

Input line: Called result for `COc1ccc2c(c[n+](C)c3c4cc5c(cc4ccc23)OCO5)c1OC`
Output line: Yes

Input line: Called result for `CC=C(C)C(=O)N[C@@H](c1ccccc1)[C@@H](O)C(=O)O[C@H]1C[C@@]2(O)[C@@H](OC(=O)c3ccccc3)[C@@H]3[C@]4(OC(C)=O)CO[C@@H]4C[C@H](O)[C@@]3(C)C(=O)[C@H](OC(C)=O)C(=C1C)C2(C)C`
Output line: No

Input line: Called result for CC(C)NCC(O)c1ccc([N+](=O)[O-])cc1 (stereo not drawn)
Output line: No

Input line: Called result for `O=C1C=CC[C@@H]2[C@H]3CCCN4CCC[C@@H](CN12)[C@@H]34`
Output line: No

Input line: Called result for `CC(O)=C(C#N)C(=O)Nc1cc(Br)ccc1Br`
Output line: No

Input line: Called result for `CC(C)(C)NC[C@H](O)c1ccc(O)cc1Cl`
Output line: No

Input line: Called result for `O=C(O)COc1ccccc1`
Output line: No

Input line: Called result for `O=C(Nc1ccncc1)C(=O)c1cn(Cc2ccc(Cl)cc2)c2ccccc12`
Output line: No

Input line: Called result for `O=C(O)C(Cl)Cl`
Output line: No

Input line: Called result for `CN(C)[C@@H]1C(=O)C(C(N)=O)=C(O)[C@@]2(O)C(=O)C3=C(O)c4c(O)cccc4[C@@](C)(O)[C@H]3[C@H](O)[C@@H]12`
Output line: No

Input line: Called result for `C[C@@H]1CC[C@H]2[C@@H](C)C(=O)O[C@@H]3O[C@@]4(C)CC[C@H]1[C@]32OO4`
Output line: No

Input line: Called result for CC(O)CN1CCN(CC(=O)[O-])CCN(CC(=O)[O-])CCN(CC(=O)[O-])CC1.[Gd+3] (stereo not drawn)
Output line: No

Input line: Called result for `O=[N+]([O-])c1ccc([As](=O)(O)O)cc1`
Output line: No

Input line: Called result for `O=c1[nH]c2ccccc2n1C1CCN(Cc2ccc(-c3[nH]c4cc5ncnc5cc4nc3-c3ccccc3)cc2)CC1`
Output line: No

From: PubChem BioAssay (NCATS)
